FYI, the data here is from patent US10077261B2.

target: Fatty Acid Synthase Keto-reductase Domain (FASN KR) (Homo sapiens)
Sequence (P49327 whole entry, the tested form may be a part): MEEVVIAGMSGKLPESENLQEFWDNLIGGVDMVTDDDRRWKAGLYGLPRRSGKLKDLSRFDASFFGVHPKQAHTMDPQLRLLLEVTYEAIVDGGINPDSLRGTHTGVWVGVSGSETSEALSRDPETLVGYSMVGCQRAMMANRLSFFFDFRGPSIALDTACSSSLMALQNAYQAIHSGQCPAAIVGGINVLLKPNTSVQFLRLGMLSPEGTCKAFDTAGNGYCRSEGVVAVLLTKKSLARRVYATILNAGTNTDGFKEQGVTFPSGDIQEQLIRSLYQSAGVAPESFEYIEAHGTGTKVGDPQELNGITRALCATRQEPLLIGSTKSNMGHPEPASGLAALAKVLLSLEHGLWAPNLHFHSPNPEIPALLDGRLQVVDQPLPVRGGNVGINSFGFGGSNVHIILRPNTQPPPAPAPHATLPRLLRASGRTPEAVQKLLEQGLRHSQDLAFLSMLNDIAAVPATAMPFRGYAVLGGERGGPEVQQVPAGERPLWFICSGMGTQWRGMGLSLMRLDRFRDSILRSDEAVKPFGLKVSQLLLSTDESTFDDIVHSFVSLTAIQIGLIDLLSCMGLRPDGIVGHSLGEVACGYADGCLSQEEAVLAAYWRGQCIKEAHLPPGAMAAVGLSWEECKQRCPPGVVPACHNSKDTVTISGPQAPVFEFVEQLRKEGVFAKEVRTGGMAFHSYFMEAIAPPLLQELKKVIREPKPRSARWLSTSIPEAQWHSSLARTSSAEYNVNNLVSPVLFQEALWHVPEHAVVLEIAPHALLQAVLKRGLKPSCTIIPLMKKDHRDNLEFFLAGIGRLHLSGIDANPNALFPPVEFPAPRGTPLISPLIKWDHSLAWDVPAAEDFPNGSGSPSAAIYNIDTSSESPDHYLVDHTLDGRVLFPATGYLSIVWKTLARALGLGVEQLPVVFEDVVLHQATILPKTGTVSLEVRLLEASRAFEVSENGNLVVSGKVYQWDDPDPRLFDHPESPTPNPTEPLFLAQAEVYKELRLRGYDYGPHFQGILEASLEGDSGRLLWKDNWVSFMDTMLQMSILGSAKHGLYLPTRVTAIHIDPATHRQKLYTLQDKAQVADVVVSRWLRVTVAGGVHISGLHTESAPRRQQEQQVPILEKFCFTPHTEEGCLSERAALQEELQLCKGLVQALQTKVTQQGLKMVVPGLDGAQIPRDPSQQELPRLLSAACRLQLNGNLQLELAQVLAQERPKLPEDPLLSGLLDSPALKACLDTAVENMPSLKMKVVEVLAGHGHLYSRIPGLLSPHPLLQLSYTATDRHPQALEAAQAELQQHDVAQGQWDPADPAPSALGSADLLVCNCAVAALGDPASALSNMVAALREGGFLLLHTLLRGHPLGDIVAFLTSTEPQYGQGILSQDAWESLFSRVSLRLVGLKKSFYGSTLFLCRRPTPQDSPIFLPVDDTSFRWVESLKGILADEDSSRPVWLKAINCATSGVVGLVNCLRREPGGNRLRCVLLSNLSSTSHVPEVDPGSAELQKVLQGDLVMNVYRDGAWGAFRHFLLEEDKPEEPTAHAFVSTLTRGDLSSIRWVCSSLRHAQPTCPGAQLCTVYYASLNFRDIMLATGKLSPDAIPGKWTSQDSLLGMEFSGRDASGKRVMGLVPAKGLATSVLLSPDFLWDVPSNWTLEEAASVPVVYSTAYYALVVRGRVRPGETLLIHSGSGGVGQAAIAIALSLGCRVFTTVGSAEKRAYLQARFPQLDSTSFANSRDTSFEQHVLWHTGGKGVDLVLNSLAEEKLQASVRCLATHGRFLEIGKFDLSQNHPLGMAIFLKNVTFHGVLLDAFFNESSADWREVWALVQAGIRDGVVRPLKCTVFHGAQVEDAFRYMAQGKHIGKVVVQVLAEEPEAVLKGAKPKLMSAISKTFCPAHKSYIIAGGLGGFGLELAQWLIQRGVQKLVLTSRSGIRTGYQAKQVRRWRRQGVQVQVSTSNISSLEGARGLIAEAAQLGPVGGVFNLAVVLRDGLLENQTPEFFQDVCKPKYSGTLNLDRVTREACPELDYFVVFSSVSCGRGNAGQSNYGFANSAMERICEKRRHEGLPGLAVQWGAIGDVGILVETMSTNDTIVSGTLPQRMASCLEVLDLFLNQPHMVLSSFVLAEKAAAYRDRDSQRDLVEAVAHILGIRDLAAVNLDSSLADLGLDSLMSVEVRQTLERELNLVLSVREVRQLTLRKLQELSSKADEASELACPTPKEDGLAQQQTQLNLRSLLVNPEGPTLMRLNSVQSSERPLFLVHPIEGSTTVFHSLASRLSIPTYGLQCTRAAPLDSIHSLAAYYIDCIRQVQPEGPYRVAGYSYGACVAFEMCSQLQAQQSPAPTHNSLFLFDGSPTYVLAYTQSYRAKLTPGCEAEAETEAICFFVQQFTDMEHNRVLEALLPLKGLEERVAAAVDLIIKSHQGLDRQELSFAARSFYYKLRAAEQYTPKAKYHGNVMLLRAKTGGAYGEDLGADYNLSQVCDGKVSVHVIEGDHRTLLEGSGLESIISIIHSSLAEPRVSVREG
Recorded metric: log10 of IC50 (log10 of the value in µM)
All values: log10 IC50 [µM].

Below are 3 molecules. Give each one its log10 of IC50.
1. O=C(C1CC1)N1CCC(CN2C(=O)C3(CCCC3)N=C2c2ccc(-c3ccc4[nH]ccc4c3)cc2)CC1
2. Cc1cc(-c2cccc3nn(C)cc23)ccc1C1=NC2(CC2)C(=O)N1CC1CN(C(=O)C2(C)CC2)C1
3. Cn1ccc(-c2ccc(-c3ccc(C4=NC5(CC5)C(=O)N4CC4CN(C(=O)C5CC5)C4)cc3)cc2)n1

-0.10
-0.51
0.21

Provide log10 of IC50 values for the following items, in order.
1. Cc1cc(-c2ccc3cnccc3c2)ccc1C1=NC2(CCCC2)C(=O)N1C[C@@H]1CCN(C(=O)C2CC2)C1
2. Cc1cc(-c2ccc3c(cnn3C)c2)ccc1C1=NC2(CC2)C(=O)N1CC1CN(C(=O)C2(CO)CC2)C1
3. COCc1c2ccc(-c3ccc(C4=NC5(CC5)C(=O)N4C[C@@H]4CCN(C(=O)C5CC5)C4)cc3)cc2nn1C
4. O=C(C1CC1)N1CC[C@@H](CN2C(=O)C3(CC3)N=C2c2ccc(-c3cccc4ncccc34)cc2)C1

[-1.22, -0.28, 0.42, -1.22]
